Source: patent US8906909B2

# System: H460 cells
# test.details: Cell proliferation assay Method B, H460
# Format: cell-based
# recorded.conditions: Homo sapiens, NCI-H460, NSCLC, 72 hours, read-out: antiproliferative activity IC50, H460
measured.parameter: IC50

> print(dat)
                                   compound  subject.of.test  measured.value
1  CS(=O)(=O)N1CCN(Cc2cc3nc(-c4cccc5[nH]ncc45)nc(N4CCOCC4)c3s2)CC1 [GDC-0941, reference compound]       H460 cells         > 10 µM

====

# System: SW403 cells
# test.details: Cell proliferation assay Method B, SW403
# Type: cell-based
# recorded.conditions: Homo sapiens, SW-403, Colon, 72 hours, read-out: antiproliferative activity IC50, SW403
measured.parameter: IC50

> print(dat)
                                   compound  measured.value
1  CS(=O)(=O)N1CCN(Cc2cc3nc(-c4cccc5[nH]ncc45)nc(N4CCOCC4)c3s2)CC1 [GDC-0941, reference compound]         > 10 µM
